- Target Entity: cytosolic leucine aminopeptidase (LAPc) (EC3.4.11.1) (Bos taurus)
- Construct: The LAPc enzymes from bovine livers; purchased Sigma Chemical Corporation; host or cells: bovine livers (tissue)
- Sequence (P00727 1-519): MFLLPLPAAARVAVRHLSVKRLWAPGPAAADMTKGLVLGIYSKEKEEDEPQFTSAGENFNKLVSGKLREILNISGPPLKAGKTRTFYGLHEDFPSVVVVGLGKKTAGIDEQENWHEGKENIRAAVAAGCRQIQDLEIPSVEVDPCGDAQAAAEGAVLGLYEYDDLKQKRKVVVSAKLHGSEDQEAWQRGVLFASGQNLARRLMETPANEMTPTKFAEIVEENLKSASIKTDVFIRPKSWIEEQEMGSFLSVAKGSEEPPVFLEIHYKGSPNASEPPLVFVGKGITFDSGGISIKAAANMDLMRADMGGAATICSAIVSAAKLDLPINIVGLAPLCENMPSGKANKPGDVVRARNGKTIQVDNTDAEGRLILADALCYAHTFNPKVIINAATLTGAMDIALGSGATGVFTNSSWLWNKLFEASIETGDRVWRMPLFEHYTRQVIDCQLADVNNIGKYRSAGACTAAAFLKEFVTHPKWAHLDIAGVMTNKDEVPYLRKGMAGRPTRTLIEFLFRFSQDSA
- Assay Overview: LAPc inhibition, Ki by spectrophotometry (Dixon method)
- Type: biochemical, bovine
- Experimental Context: L-leucine para-nitroanilide substrate, 30° C., pH=8.0; hydrochloride, racemic mixture; read-out: Ki (M) LAPc (EC3.4.11.1)
Counter-ions that a name gives are not always drawn.
Listed next: entries and their corresponding Ki.

| Molecule | Target Entity | Ki |
| --- | --- | --- |
| NC1CCc2ccccc2C(F)C1=O (racemic) [EX 3, hydrochloride] | cytosolic leucine aminopeptidase (LAPc) (EC3.4.11.1) (Bos taurus) | > 0.001 M |
| NC1CCc2c(Br)cccc2CC1=O (racemic) [EX 9, hydrochloride] | cytosolic leucine aminopeptidase (LAPc) (EC3.4.11.1) (Bos taurus) | > 0.001 M |
| Cl.NC1CCc2ccccc2C(CCCc2ccccc2)C1=O (racemic) [EX 6, hydrochloride] | cytosolic leucine aminopeptidase (LAPc) (EC3.4.11.1) (Bos taurus) | > 0.001 M |
| NC1CCc2ccccc2C(SCc2ccccc2)C1=O (racemic) [EX 8, hydrochloride] | cytosolic leucine aminopeptidase (LAPc) (EC3.4.11.1) (Bos taurus) | > 0.001 M |
| Cl.NC1CCc2ccccc2CC1=O (racemic) [EX 2, hydrochloride] | cytosolic leucine aminopeptidase (LAPc) (EC3.4.11.1) (Bos taurus) | > 0.001 M |
| NC1CCc2cccc(-c3ccccc3)c2CC1=O (racemic) [EX 7, hydrochloride] | cytosolic leucine aminopeptidase (LAPc) (EC3.4.11.1) (Bos taurus) | 2e-05 M |

====

- Target Entity: cytosolic leucine aminopeptidase (LAPc) (EC3.4.11.1) (Bos taurus)
- Construct: The LAPc enzymes from bovine livers; purchased Sigma Chemical Corporation; host or cells: bovine livers (tissue)
- Assay Overview: LAPc inhibition, Ki by spectrophotometry (Dixon method)
- Assay type: biochemical, bovine
- Method: LTA4H has an aminopeptidase type activity similar to AP-N and a very close substrate specificity. It is important for the AP-N inhibitory molecules neither to inhibit LTA4H nor aminopeptidases that contain a co-catalytic unit like LAPc. The LAPc enzymes from bovine livers and AP-N from porcine livers are marketed by Sigma Chemical Corporation. […] All the inhibitory molecules are assessed as an hydrochloride and in racemic mixture.

| Molecule | Ki, µM |
| --- | --- |
| NC1Cc2ccccc2CC1=O (racemic) [EX 10, 2-amino-3-tetralone, reference compound] | 120 |

====

- Target Entity: AP-N (EC3.4.11.2) (Sus scrofa, UniProt P15145)
- Construct: The AP-N is purified in a soluble form according to the method described by Wacker; purchased Sigma Chemical Corporation; host or cells: porcine livers (tissue)
- Sequence (P15145 33-963 limits assumed): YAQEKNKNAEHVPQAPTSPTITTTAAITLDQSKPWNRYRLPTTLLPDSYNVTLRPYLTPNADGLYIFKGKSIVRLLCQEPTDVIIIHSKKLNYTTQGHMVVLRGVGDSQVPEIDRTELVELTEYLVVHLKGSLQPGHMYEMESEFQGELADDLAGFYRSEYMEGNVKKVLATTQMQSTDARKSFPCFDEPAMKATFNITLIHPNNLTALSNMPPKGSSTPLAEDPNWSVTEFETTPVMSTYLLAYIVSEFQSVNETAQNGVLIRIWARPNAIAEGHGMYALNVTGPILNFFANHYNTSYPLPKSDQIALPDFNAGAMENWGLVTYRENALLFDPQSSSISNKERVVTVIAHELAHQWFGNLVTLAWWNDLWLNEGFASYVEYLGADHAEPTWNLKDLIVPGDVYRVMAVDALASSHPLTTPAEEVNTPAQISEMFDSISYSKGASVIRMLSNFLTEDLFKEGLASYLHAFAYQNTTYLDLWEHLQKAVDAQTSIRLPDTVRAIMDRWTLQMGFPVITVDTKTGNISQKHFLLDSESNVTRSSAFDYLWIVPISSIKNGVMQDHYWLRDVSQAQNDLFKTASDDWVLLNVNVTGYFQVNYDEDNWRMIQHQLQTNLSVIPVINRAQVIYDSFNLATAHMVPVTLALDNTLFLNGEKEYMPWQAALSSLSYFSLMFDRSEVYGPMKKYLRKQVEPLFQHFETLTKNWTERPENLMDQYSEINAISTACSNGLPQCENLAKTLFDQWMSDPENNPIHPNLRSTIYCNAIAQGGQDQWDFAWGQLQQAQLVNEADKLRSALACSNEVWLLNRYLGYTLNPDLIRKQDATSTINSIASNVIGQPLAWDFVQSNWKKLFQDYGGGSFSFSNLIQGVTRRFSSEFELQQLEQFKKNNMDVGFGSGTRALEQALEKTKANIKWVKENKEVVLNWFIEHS
- Assay Overview: AP-N inhibitory activity, inhibition constant Ki by spectrophotometry (Dixon method)
- Assay type: biochemical, porcine
- Experimental Context: L-leucine para-nitroanilide substrate, 30° C., pH=7.5; hydrochloride, racemic mixture
- Protocol: LTA4H has an aminopeptidase type activity similar to AP-N and a very close substrate specificity. It is important for the AP-N inhibitory molecules neither to inhibit LTA4H nor aminopeptidases that contain a co-catalytic unit like LAPc. The LAPc enzymes from bovine livers and AP-N from porcine livers are marketed by Sigma Chemical Corporation. […] All the inhibitory molecules are assessed as an hydrochloride and in racemic mixture.
Structures can show the parent of a compound that is named as a salt.

| Compound | Ki |
| --- | --- |
| Cl.NC1CCc2ccccc2C(CCCc2ccccc2)C1=O (racemic) [EX 6, hydrochloride] | 12000 nM |
| Cl.NC1CCc2ccccc2CC1=O (racemic) [EX 2, hydrochloride] | 1000 nM |
| NC1CCc2ccccc2C(SCc2ccccc2)C1=O (racemic) [EX 8, hydrochloride] | 80 nM |
| NC1CCc2ccccc2C(F)C1=O (racemic) [EX 3, hydrochloride] | 300 nM |
